Field: solubility thermodynamic at 4 h. Provide a value for each of the molecules that follow.
- Protocol text: physchem
- Condition: simulated gastric fluid, pH 1.2
Give the value in µM but do not write µM after it.

stdin: solubility thermodynamic at 4 h for NC(=O)c1cnccn1 [PYRAZINAMIDE] ?
stdout: 5620

stdin: Fill in the blank: the reported solubility thermodynamic at 4 h of CC(C(=O)[O-])c1ccc(-c2ccccc2)c(F)c1.[Na+] (centres undefined) is ____.
stdout: 33.1

stdin: Consider the molecule CO[C@H]1/C=C/O[C@@]2(C)Oc3c(C)c(O)c4c(O)c(c(/C=N/N5CCN(C)CC5)c(O)c4c3C2=O)NC(=O)/C(C)=C\C=C\[C@H](C)[C@H](O)[C@@H](C)[C@@H](O)[C@@H](C)[C@H](OC(C)=O)[C@@H]1C and give its measured solubility thermodynamic at 4 h.
stdout: 97.7

stdin: Return reported solubility thermodynamic at 4 h; argument: CCCc1nc2c(C)cc(-c3nc4ccccc4n3C)cc2n1Cc1ccc(-c2ccccc2C(=O)O)cc1
stdout: 38.9
